Data origin: paper PMC9404711

# Test system: A. baumannii (ATCC 19606)
# Type: cell-based, Acinetobacter baumannii
# run.parameters: value in brackets; A. baumannii ATCC 19606; MHB-II, 37 °C, 18–24 h, triplicate
measure: MIC AB (µM)
Numbers only, in µM.

Sample answers from the record:
compound: CCCCCCCCCC(=O)N[C@H](CCCCN)C(=O)N[C@H](CCCCN)C(=O)N[C@H](CC(C)C)C(=O)N[C@H](Cc1ccccc1)C(=O)N[C@H](CCCCN)C(=O)N[C@H](CCCCN)C(=O)N1CCCC[C@H](C(N)=O)NC(=O)[C@@H](Cc2ccc(O)cc2)NC(=O)[C@@H](CCCNC(=N)N)NC(=O)[C@@H](CC(C)C)NC(=O)[C@@H]([C@H](C)CC)NC(=O)C1 [compound 16]
MIC AB [µM]: 2.4
//
compound: CCCCCCCCCCCC(=O)N[C@H](CCCCN)C(=O)N[C@H](CCCCN)C(=O)N[C@H](CC(C)C)C(=O)N[C@H](Cc1ccccc1)C(=O)N[C@H](CCCCN)C(=O)N[C@H](CCCCN)C(=O)N1CCCC[C@H](C(N)=O)NC(=O)[C@@H](Cc2ccc(O)cc2)NC(=O)[C@@H](CCCNC(=N)N)NC(=O)[C@@H](CC(C)C)NC(=O)[C@@H]([C@H](C)CC)NC(=O)C1 [compound 17]
MIC AB [µM]: 2.4
//
compound: CCCCCCCCCCCCCC(=O)N[C@H](CCCCN)C(=O)N[C@H](CCCCN)C(=O)N[C@H](CC(C)C)C(=O)N[C@H](Cc1ccccc1)C(=O)N[C@H](CCCCN)C(=O)N[C@H](CCCCN)C(=O)N1CCCC[C@H](C(N)=O)NC(=O)[C@@H](Cc2ccc(O)cc2)NC(=O)[C@@H](CCCNC(=N)N)NC(=O)[C@@H](CC(C)C)NC(=O)[C@@H]([C@H](C)CC)NC(=O)C1 [compound 18]
MIC AB [µM]: 2.3

Now, please, on to the next compound.
Query: Param item = CCCCCCCCCCCCCC(=O)N[C@H](CCCCN)C(=O)N[C@H](CCCCN)C(=O)N[C@H](CC(C)C)C(=O)N[C@H](Cc1ccccc1)C(=O)N[C@H](CCCCN)C(=O)N[C@H](CCCCN)C(=O)N[C@@H](C(=O)N[C@H](CC(C)C)C(=O)N1CCCC[C@H](C(N)=O)NC(=O)[C@@H](Cc2ccc(O)cc2)NC(=O)[C@@H](CCCNC(=N)N)NC(=O)C1)[C@H](C)CC [compound 12] ; retrieve measured MIC AB.
Reply: 9.3

* * *

# Test system: P. aeruginosa (ATCC 27853)
# Assay type: cell-based, Pseudomonas aeruginosa
# run.parameters: P. aeruginosa ATCC 27853; MHB-II, inoculum 5 × 10^5 CFU/mL, 37 °C, 18–24 h, triplicate
Non-standard residues stand in square brackets, D forms with d. Residues, ends and D or L forms follow the SMILES beside them. *: point of attachment. Lauroyl = CCCCCCCCCCCC(=O)*; Decanoyl = CCCCCCCCCC(=O)*; Butyryl = CCCC(=O)*
measure: MIC PA (mg/L)
Numbers only, in mg/L.

Observe how each entry below is paired with its result.
compound: CCCCCCCCCC(=O)N[C@H](CCCCN)C(=O)N[C@H](CCCCN)C(=O)N[C@H](CC(C)C)C(=O)N[C@H](Cc1ccccc1)C(=O)N[C@H](CCCCN)C(=O)N[C@H](CCCCN)C(=O)N[C@@H](C(=O)N[C@H](CC(C)C)C(=O)N1CCCC[C@H](C(N)=O)NC(=O)[C@@H](Cc2ccc(O)cc2)NC(=O)[C@@H](CCCNC(=N)N)NC(=O)C1)[C@H](C)CC
MIC PA, mg/L: 4
//
compound: CCCCCCCCCCCC(=O)N[C@H](CCCCN)C(=O)N[C@H](CCCCN)C(=O)N[C@H](CC(C)C)C(=O)N[C@H](Cc1ccccc1)C(=O)N[C@H](CCCCN)C(=O)N[C@H](CCCCN)C(=O)N[C@@H](C(=O)N1CCCC[C@H](C(N)=O)NC(=O)[C@@H](Cc2ccc(O)cc2)NC(=O)[C@@H](CCCNC(=N)N)NC(=O)[C@@H](CC(C)C)NC(=O)C1)[C@H](C)CC
MIC PA, mg/L: 4
//
compound: CCCCCCCCCCCC(=O)N[C@H](CCCCN)C(=O)N[C@H](CCCCN)C(=O)N[C@H](CC(C)C)C(=O)N[C@H](Cc1ccccc1)C(=O)N[C@H](CCCCN)C(=O)N[C@H](CCCCN)C(=O)N[C@@H](C(=O)N[C@H](CC(C)C)C(=O)N[C@H](CCCNC(=N)N)C(=O)N[C@H](Cc1ccc(O)cc1)C(=O)N[C@H](CC(C)C)C(N)=O)[C@H](C)CC [compound 5] (Lauroyl-[dK][dK][dL][dF][dK][dK][dI][dL][dR][dY][dL]-NH2)
MIC PA, mg/L: 64
//
compound: CCCC(=O)N[C@H](CCCCN)C(=O)N[C@H](CCCCN)C(=O)N[C@H](CC(C)C)C(=O)N[C@H](Cc1ccccc1)C(=O)N[C@H](CCCCN)C(=O)N[C@H](CCCCN)C(=O)N[C@@H](C(=O)N[C@H](CC(C)C)C(=O)N[C@H](CCCNC(=N)N)C(=O)N[C@H](Cc1ccc(O)cc1)C(=O)N[C@H](CC(C)C)C(N)=O)[C@H](C)CC [compound 1] (Butyryl-[dK][dK][dL][dF][dK][dK][dI][dL][dR][dY][dL]-NH2)
MIC PA, mg/L: 32
//
compound: CCCCCCCCCCCCCC(=O)N[C@H](CCCCN)C(=O)N[C@H](CCCCN)C(=O)N[C@H](CC(C)C)C(=O)N[C@H](Cc1ccccc1)C(=O)N[C@H](CCCCN)C(=O)N[C@H](CCCCN)C(=O)N[C@@H](C(=O)N1CCCC[C@H](C(N)=O)NC(=O)[C@@H](Cc2ccc(O)cc2)NC(=O)[C@@H](CCCNC(=N)N)NC(=O)[C@@H](CC(C)C)NC(=O)C1)[C@H](C)CC
MIC PA, mg/L: 8

Quick request: MIC PA for each listed item, please.
1. CCCCCCCCCC(=O)N[C@H](CCCCN)C(=O)N[C@H](CCCCN)C(=O)N[C@H](CC(C)C)C(=O)N[C@H](Cc1ccccc1)C(=O)N[C@H](CCCCN)C(=O)N[C@H](CCCCN)C(=O)N1CCCC[C@H](C(N)=O)NC(=O)[C@@H](Cc2ccc(O)cc2)NC(=O)[C@@H](CCCNC(=N)N)NC(=O)[C@@H](CC(C)C)NC(=O)[C@@H]([C@H](C)CC)NC(=O)C1
2. CCCCCCCCCC(=O)N[C@H](CCCCN)C(=O)N[C@H](CCCCN)C(=O)N[C@H](CC(C)C)C(=O)N[C@H](Cc1ccccc1)C(=O)N[C@H](CCCCN)C(=O)N[C@H](CCCCN)C(=O)N[C@@H](C(=O)N[C@H](CC(C)C)C(=O)N[C@H](CCCNC(=N)N)C(=O)N[C@H](Cc1ccc(O)cc1)C(=O)N[C@H](CC(C)C)C(N)=O)[C@H](C)CC [compound 4] (Decanoyl-[dK][dK][dL][dF][dK][dK][dI][dL][dR][dY][dL]-NH2)

Reply:
1. 8
2. 32
